Tested on: TK-10 renal
test.details: NCI-60 one-dose screen, 48 h (100 = growth as untreated, 0 = no growth, -100 = all killed)
condition.parameters: 10 µM unless noted
The panel holds about 83,000 compounds, 20% with a hit somewhere; the sample as a whole holds those more often.
property: growth (%)
Provide the reading as a plain figure in %.

Reference set (5 entries):
>  <compound>
Cc1ccc(C(=O)NC2c3ccccc3Oc3ccccc32)cc1

>  <property>
growth

>  <display.unit>
%

>  <readout.value>
54.4

$$$$
>  <compound>
Nc1nc2c(c(-c3nc(N)nc4c3CCc3ccccc3-4)n1)CCc1ccccc1-2

>  <property>
growth

>  <display.unit>
%

>  <readout.value>
131

$$$$
>  <compound>
O=C1Cc2ccccc2C(=O)O1

>  <property>
growth

>  <display.unit>
%

>  <readout.value>
110

$$$$
>  <compound>
CCCCCCCCCCC(C)Br (stereo not drawn)

>  <property>
growth

>  <display.unit>
%

>  <readout.value>
107

$$$$
>  <compound>
CC(C)=NNC(N)=S

>  <property>
growth

>  <display.unit>
%

>  <readout.value>
113

$$$$

Field: growth (TK-10 renal). Entry: c1ncc2[nH]cnc2n1
103

Which growth is reported with TK-10 renal for this entry: C=CCc1cc(C(C)=O)cc(OC)c1O ?
102

Notebook entry, TK-10 renal assay: growth of CC(=O)N(C)c1ccc([N+](=O)[O-])cc1 = ?
95.8
